Taken from PubChem BioAssay AID1159580.

assay: chemical genetic growth profiling, strain panel (AID 1159580);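 further: tested at 20 µM; growth read once vehicle control cultures reached saturation at 30 °C; lower values mean less growth of the strain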; settings: S. cerevisiae deletion strains, growth OD, locus YMR205C, strain PFK2
In all, about 5,500 compounds went through this assay and about 2,000 (36%) were called active. Inconclusive results (about 18%) are left out. No stated cut-off is given here; in the data, active means normalized growth mostly below about 0.91 (no sharp cut-off); inconclusive means no clear call, values can overlap the other calls; inactive means mostly above about 0.92. This is one part of the list.
Possible outcomes: Y (active), N (inactive)

compound | category
Oc1ccc2c(c1)OCC1(O)Cc3cc(O)c(O)cc3C21 (stereo not given) | N
CCCCCc1c2c(cc(O)c1C(=O)O)OC(=O)c1c(cc(OC)cc1C(=O)CCCC)O2 | N
O=C(O[C@@H]1Cc2c(O)cc(O)cc2O[C@@H]1c1cc(O)c(=O)c2c(O)c(O)cc([C@H]3Oc4cc(O)cc(O)c4C[C@H]3O)c2c1)c1cc(O)c(O)c(O)c1 | Y
CNC(=O)Oc1cccc2c1OC(C)(C)O2 | N
COc1cccc2c(C)cc(=O)[nH]c12 | N
